Dear all, this message contains pEC50 results, target or system OC43 Mpro (Human coronavirus OC43 (HCoV-OC43)).
pEC50: −log10 of the molar value.
assayEndpoint: pEC50

chemicalString	endpointValue
O=C(N[C@@H]1CCN(c2c(OC(F)(F)F)cc(Cl)cc2C(=O)N2CCOCC2)C1)c1cc(=O)[nH]c2c(F)cccc12	8.70
Cc1[nH]c(=O)c(F)c(C(=O)N[C@@H]2CCN(c3c(C(=O)N4CCOCC4)cc(C#N)cc3C(F)(F)F)C2)c1Cl	7.99
Cc1cc(C(=O)N[C@@H]2CCN(c3c(C(=O)N4CCOCC4)cc(Br)cc3C(F)(F)F)C2)c(F)c(=O)[nH]1	8.41
COc1cccc2[nH]c(=O)cc(C(=O)N[C@@H]3CCN(c4c(C(=O)N5CCOCC5)cc(Cl)nc4C4CC4)C3)c12	8.79
N#Cc1cc(C(=O)N2CCOCC2)c(N2C[C@H](NC(=O)c3cc(=O)[nH]c4c(F)cc(F)cc34)CC2=O)c(C(F)(F)F)c1	6.77
O=C(N[C@@H]1CCN(c2c(C(=O)N3CCOCC3)cc(Br)cc2C(F)(F)F)C1)c1cc(=O)[nH]c2c(Cl)cccc12	8.23
NC(=O)c1cc(C(=O)N2CCOCC2)c(N2CC[C@@H](NC(=O)c3cc(=O)[nH]c4c(F)cccc34)C2)c(C(F)(F)F)c1	7.78
O=C(N[C@@H]1CCN(c2c(C(=O)N3CCOCC3)cc(Br)cc2C(F)(F)F)C1)c1c(F)c(=O)[nH]c2ccccc12	9.15
O=C(N[C@@H]1CCN(c2c(C(=O)N3CCCCC3)cc(Br)cc2C(F)(F)F)C1)c1cc(=O)[nH]c2c(F)cccc12	8.54
COc1cccc2[nH]c(=O)cc(C(=O)N[C@@H]3CCN(c4c(C(=O)N5CCOCC5)cc(F)cc4C4CC4)C3)c12	9.12
Cc1cc(C(=O)N2CCOCC2)c(N2CC[C@@H](NC(=O)c3cc(=O)[nH]c4c(F)cccc34)C2)c(C2CC2)c1	9.29

###

target: UniProt P0C6X1
Sequence (P0C6X1 2966-3267 limits assumed): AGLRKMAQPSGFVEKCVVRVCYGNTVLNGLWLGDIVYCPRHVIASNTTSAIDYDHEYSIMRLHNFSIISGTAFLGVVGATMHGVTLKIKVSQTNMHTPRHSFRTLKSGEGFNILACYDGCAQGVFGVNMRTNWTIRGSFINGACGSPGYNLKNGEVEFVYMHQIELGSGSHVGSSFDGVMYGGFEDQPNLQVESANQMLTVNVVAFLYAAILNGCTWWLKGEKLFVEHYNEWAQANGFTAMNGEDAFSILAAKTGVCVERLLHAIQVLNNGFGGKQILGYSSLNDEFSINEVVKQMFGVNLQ
# 1.0 = EC50 below 9 nM (exclusive); 0.0 = EC50 at/above 9 nM

chemicalString	classification
O=C(N[C@@H]1CCN(c2c(C(=O)N3CCC(F)(F)C3)cc(Br)cc2C(F)(F)F)C1)c1cc(=O)[nH]c2c(F)cccc12	0.0
O=C(N[C@@H]1CCN(c2c(C(=O)N3CCOCC3)cc(Br)cc2C(F)(F)F)C1)c1cc(=O)[nH]c2c(F)ccc(F)c12	1.0
COc1cccc2[nH]c(=O)cc(C(=O)N[C@@H]3CCN(c4c(C(=O)N5CCOCC5)cc(F)cc4C4CC4)C3)c12	1.0
O=C(N[C@@H]1CCN(c2c(C(=O)N3CCCCC3)cc(Br)cc2C(F)(F)F)C1)c1cc(=O)[nH]c2c(F)cccc12	0.0
O=C(N[C@@H]1CCN(c2c(C(=O)N3CCOCC3)cc(F)cc2C2CC2)C1)c1cc(=O)[nH]c2c(F)cccc12	1.0
O=C(N[C@@H]1CCN(c2c(C(=O)N3CCOCC3)cc(Br)cc2C(F)(F)F)C1)c1c(F)c(=O)[nH]c2ccccc12	1.0

###

assay: in vitro; conditions: rat, microsomes, pH 7.4
assayEndpoint: CLint scaled (mL/min/kg)

chemicalString	measureUnit	qualifierSign	endpointValue
N#Cc1cc(C(=O)N2CCOCC2)c(N2CC[C@@H](NC(=O)c3c(F)c(=O)[nH]c4c(F)cccc34)C2)c(C(F)F)c1	mL/min/kg	<	41.7
N#Cc1cc(C(=O)N2CCOCC2)c(N2CC[C@H](NC(=O)c3cc(=O)[nH]c4c(F)cccc34)C2)c(C(F)(F)F)c1	mL/min/kg	<	41.7
Cc1cc(C(=O)N[C@@H]2CCN(c3c(C(=O)N4CCOCC4)cc(C#N)cc3C(F)F)C2)c(F)c(=O)[nH]1	mL/min/kg	<	41.7
O=C(N[C@H]1CCN(c2c(C(=O)N3CCOCC3)cc(Br)cc2C(F)(F)F)C1)c1cc(=O)[nH]c2c(F)cccc12	mL/min/kg	=	182
N#Cc1cc(C(=O)N2CCOCC2)c(N2C[C@H](NC(=O)c3cc(=O)[nH]c4c(F)cc(F)cc34)CC2=O)c(C(F)(F)F)c1	mL/min/kg	<	56.7
Cc1cc(C(=O)N2CCOCC2)c(N2C[C@H](NC(=O)c3cc(=O)[nH]c4c(F)cc(F)cc34)CC2=O)c(C2CC2)c1	mL/min/kg	<	56.7
N#Cc1cc(C(=O)N2CCOCC2)c(N2C[C@H](NC(=O)c3cc(=O)[nH]c4c(F)c(F)ccc34)CC2=O)c(C(F)(F)F)c1	mL/min/kg	<	45
NC(=O)c1cc(C(=O)N2CCOCC2)c(N2CC[C@@H](NC(=O)c3cc(=O)[nH]c4c(F)cccc34)C2)c(C(F)(F)F)c1	mL/min/kg	=	46.7
O=C(N[C@@H]1CCN(c2c(C(=O)N3CCOCC3)cc(Br)cc2C(F)(F)F)C1)c1c(F)c(=O)[nH]c2c(F)cccc12	mL/min/kg	=	210
COc1cccc2[nH]c(=O)cc(C(=O)N[C@@H]3CCN(c4c(C5CC5)ccc(F)c4C(=O)N4CCOCC4)C3)c12	mL/min/kg	=	418
O=C(N[C@@H]1CCN(c2c(C(=O)N3CCOCC3)cc(Br)cc2C(F)(F)F)C1)c1c(F)c(=O)[nH]c2ccccc12	mL/min/kg	=	615
COc1cccc2[nH]c(=O)cc(C(=O)N[C@@H]3CCN(c4c(C(=O)N5CCOCC5)cc(C#N)cc4C(F)(F)F)C3)c12	mL/min/kg	<	58.3
N#Cc1cc(C(=O)N2CCNC(=O)C2)c(N2CC[C@@H](NC(=O)c3cc(=O)[nH]c4c(F)cccc34)C2)c(C(F)(F)F)c1	mL/min/kg	<	58.3
O=C(N[C@@H]1CCN(c2c(C(=O)N3CCOCC3)cc(Br)cc2C(F)(F)F)C1)c1cc(=O)[nH]c2c(Cl)cccc12	mL/min/kg	=	1000
Cc1cc(C(=O)N2CCOCC2)c(N2CC[C@@H](NC(=O)c3cc(=O)[nH]c4c(F)cccc34)C2)c(C2CC2)c1	mL/min/kg	=	942
O=C(N[C@@H]1CCN(c2c(C(=O)N3CCOCC3)cc(F)cc2C(F)(F)F)C1)c1cc(=O)[nH]c2c(F)cc(F)cc12	mL/min/kg	=	625
Cc1cc(C(=O)N[C@@H]2CCN(c3c(C(=O)NCC(C)C)cc(C#N)cc3C(F)(F)F)C2)cc(=O)[nH]1	mL/min/kg	<	51.7
